Hello, the source for this data is PubChem BioAssay, in case you need it.

Test: inhibitors of hydroxyurea-induced Chk1 phosphorylation, primary screen, imaging, HeLa, phospho-Chk1 nuclear intensity (AID 1187); note: test concentration not given here
Conditions: hydroxyurea-induced phospho-Chk1 immunofluorescence imaging, higher = more signal
Label scheme for z-score: lower than -0.1 is Not satisfied, -0.1 and above is Satisfied.

molecule	assigned-class
C#C[C@@H]1Oc2ccccc2S(=O)(=O)N2CCC[C@H]12	Satisfied
O=C1O[C@@H](c2ccccc2)[C@@H](c2ccccc2)N2[C@@H](c3ccccc3OCCO)[C@]3(C(=O)Nc4ccc(C#CCCO)cc43)[C@@H](C(=O)O)[C@H]12	Satisfied
CCCCCCc1nc(CCCc2cc3c(c(CCCCCC)n2)[Si](C(C)C)(C(C)C)O[C@H]3c2ccccc2)cc2c1[Si](C(C)C)(C(C)C)O[C@H]2c1ccccc1	Not satisfied
COCCCNC(=O)[C@]1(Cc2ccccc2)N=C(c2ccc(OCCCO)cc2)O[C@@H]1c1ccccc1	Satisfied
CC(C)N1CC=CC23O[C@@H]4C=CCCOC(=O)C4[C@H]2C(=O)N(CCCCCCO)[C@@H]3C1=O (some centres undefined)	Not satisfied
CCOc1ccc(N2C(=O)/C(=C/C=C/c3ccccc3OC)S(=O)(=O)C2c2cccc([N+](=O)[O-])c2)cc1 (centres undefined)	Not satisfied
COC(=O)C1=CCC(c2cccc(Cl)c2)O1 (centres undefined)	Satisfied
COCCOC(=O)N1C(=O)[C@@]2(c3cc(C#Cc4ccc(OC)cc4)ccc31)[C@H](c1ccc(O)cc1)N1[C@H](c3ccccc3)[C@H](c3ccccc3)OC(=O)[C@H]1[C@@H]2C(N)=O	Not satisfied
CC(C)C[C@@H]1NC(=O)[C@H]2C[C@@H](C(=O)NCCCCCCN(C)C)[C@@H](c3cccc(OCCO)c3)N2C1=O	Satisfied
COC(=O)[C@@]1(Cc2ccc(F)cc2)[C@H]2c3cc(C(=O)N(C)C)n(Cc4ccc(OC)c(OC)c4)c3C[C@H]2CN1C(=O)c1ccccc1	Satisfied
COC(=O)[C@]1(CO)N=C(c2ccc(OCCCO)cc2)O[C@@H]1c1ccccc1N=[N+]=[N-]	Satisfied
O=C1O[C@@H](c2ccccc2)[C@@H](c2ccccc2)N2[C@@H](c3ccc(OCCO)cc3)[C@]3(C(=O)Nc4ccc(C#CCCO)cc43)[C@@H](C(=O)N3CCCCCCC3)[C@H]12	Satisfied
CCCNC(=O)[C@@H]1c2ccccc2C(=O)N(Cc2ccccc2Cl)[C@H]1c1ccc(CO)cc1	Not satisfied
COCCOC(=O)N1C(=O)[C@@]2(c3cc(C#CCNC(N)=O)ccc31)[C@H](c1ccc(O)cc1)N1[C@H](c3ccccc3)[C@H](c3ccccc3)OC(=O)[C@H]1[C@@H]2C(=O)N1CCCCCCC1	Satisfied
Cc1ccc(F)cc1S(=O)(=O)N[C@@H]1CCN(Cc2ccc(CC(C)C)cc2)C1	Not satisfied
O=C(CS)NCCCCCNC(=O)[C@@H]1C[C@@H]2C(=O)N[C@@H](Cc3ccccc3)C(=O)N2[C@@H]1c1ccc(O)cc1	Satisfied
COc1ccc([Si](C)(C)[C@H]2[C@H](CC(=O)N3CCC[C@H]3CO)O[C@@]3(C(=O)N(Cc4cccc(N5C(=O)COc6ccccc65)c4)c4ccccc43)[C@@H]2C)cc1	Satisfied
Cn1cccc1C(O)C1C=CC2C(=O)NC(=O)C2N1Nc1ccccn1 (centres undefined)	Not satisfied
COCCOC(=O)N1C(=O)[C@@]2(c3cc(C#Cc4ccc(OC)cc4)ccc31)[C@H](C(=O)N1CCN(c3ncccn3)CC1)[C@H]1C(=O)O[C@H](c3ccccc3)[C@H](c3ccccc3)N1[C@@H]2c1ccc(OCCO)cc1	Satisfied
COCCCNC(=O)[C@@]1(C)c2ccccc2C(=O)N(Cc2ccc(OC(F)(F)F)cc2)[C@H]1c1ccc(CO)cc1	Not satisfied
COCCCNC(=O)[C@@]1(Sc2ccc(C)cc2)CC(=O)N(Cc2ccccc2)[C@@H]1c1ccc(CO)cc1I	Satisfied
CC(C)[Si]1(C(C)C)O[C@@H](c2ccccc2)c2cc(C3CC3)nc(-c3ccccc3)c21	Not satisfied
[N-]=[N+]=NCc1ccccc1C[C@]1(C(=O)NCc2ccccc2)N=C(c2ccc(OCCCO)cc2)O[C@H]1c1ccccc1N=[N+]=[N-]	Not satisfied
CN1C(=O)C2C(C1=O)C1C=C(CCCO)C2C(c2ccc(CN3CCCC3)cc2)N1C (centres undefined)	Satisfied
C=CCC(OC(C)=O)[C@@H]1[C@@H](N(Cc2cc3ccccc3o2)C(=O)Cc2ccc(F)cc2)c2cc(OCCCO)ccc2N1C(=O)Cc1ccc(OC)cc1 (some centres undefined)	Satisfied
C=C(/C(=C/C[C@@H](OC(=O)c1ccncc1)c1ccc(OCCO)cc1)c1cnc2ccccc2c1)C(C)C	Satisfied
CS(=O)(=O)CCOC(=O)C1=CC(CCCO)=CC(c2cccs2)N(Cc2cccc(OC(F)(F)F)c2)C=C1C(=O)OCCS(C)(=O)=O (centres undefined)	Satisfied
O=C1O[C@@H](c2ccccc2)[C@@H](c2ccccc2)N2[C@@H](c3ccc(O)cc3)[C@]3(C(=O)Nc4ccccc43)[C@@H](C(=O)O)[C@H]12	Satisfied
Cc1ccc(C2CC=C(C(=O)O)CN2S(=O)(=O)c2ccc(C)cc2)cc1 (centres undefined)	Not satisfied
